Provenance of the data: patent US20090143279A1

Reported Viability values follow for various molecules
Tested on: C2C12 myotubes
Conditions: composite Z-score vs DMSO; Conc 20 μM
PROPERTY NAME: Viability

molecule=O=c1cc(-c2ccc(O)cc2)oc2cc(O[C@@H]3O[C@H](CO)[C@@H](O)[C@H](O)[C@H]3O)cc(O)c12 result_value=0.141
molecule="Cc1cc(O)c2c(c1O)C(=O)c1c(O)cc(C)c(O)c1C2=O [reference compound]" result_value=−0.853
molecule="CN1CCc2cc3c(cc2[C@H]1[C@@H]1OC(=O)c2c1ccc1c2OCO1)OCO3 [(+)-bicuculline]" result_value=−0.572
molecule=C[C@@H]1C[C@H]2CC(=O)[C@H]3CCCN4CCC[C@H]2[C@]34C1 result_value=−0.466
molecule=Nc1nc2c(ncn2[C@H]2C[C@H](O)[C@@H](CO)O2)c(=O)[nH]1 result_value=−0.819
molecule="C[C@@H]1[C@H](O)[C@@H](C)/C=C/C=C/CC/C=C/C=C/C=C/C=C/C(O[C@H]2O[C@H](C)[C@@H](O)[C@H](N)[C@@H]2O)CC2O[C@](O)(CC(O)C(O)CCC(O)CC(O)CC(O)CC(=O)O[C@H]1C)CC(O)C2C(=O)O (some centres unmarked)" result_value=0.794
molecule="CC(C)[C@@H](C)C=C[C@@H](C)[C@H]1CC[C@H]2C3=CCC4CC(=O)CC[C@]4(C)[C@H]3CC[C@]12C (some centres unmarked)" result_value=−0.892
molecule="O=C(C=C(O)c1ccccc1)c1ccccc1O [2′,beta-dihydroxychalcone]" result_value=−0.801
molecule="COC(=O)C(C)c1ccc(C(=O)c2cccs2)cc1 (centres unmarked)" result_value=0.611
molecule=COc1ccc2oc3ccccc3c(=O)c2c1 result_value=−0.428
molecule=C[C@]12C=CC(=O)C=C1CC[C@@H]1[C@@H]2CC[C@]2(C)C(=O)CC[C@@H]12 result_value=0.162
molecule=C=C(C)[C@@H]1CC[C@]2(C(=O)O)CC[C@]3(C)[C@H](CC[C@@H]4[C@@]5(C)CC[C@H](O)C(C)(C)[C@@H]5CC[C@]43C)[C@@H]12 result_value=0.850
molecule=O=C1CC[C@]23/C=C/C(=O)NCCCCNCCCNC(=O)/C=C/c4ccc(c2c4)O[C@@H]3C1 result_value=−0.579
molecule=COc1ccc2cc([C@H](C)CO)ccc2c1 result_value=0.249
molecule=C[C@@H]1CC[C@@]2(OC1)O[C@H]1C[C@H]3[C@@H]4CC=C5C[C@@H](O)CC[C@]5(C)[C@H]4CC[C@]3(C)[C@H]1[C@@H]2C result_value=−0.044
molecule=C[C@]12CC[C@H](O)C[C@@H]1CC[C@@H]1[C@@H]2CC[C@]2(C)[C@@H](O)CC[C@@H]12 result_value=−0.204
molecule=COc1cc(C=CC=O)cc(OC)c1OC result_value=1.061
